Where these numbers come from: ChEMBL document CHEMBL4673389

Target: Cereblon isoform 4 (Magnetospirillum gryphiswaldense, UniProt A4TVL0)
Sequence (A4TVL0 whole entry): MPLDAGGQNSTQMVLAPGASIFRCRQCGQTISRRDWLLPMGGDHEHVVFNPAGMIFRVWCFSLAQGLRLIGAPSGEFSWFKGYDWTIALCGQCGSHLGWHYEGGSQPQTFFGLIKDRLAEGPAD
Assay: Binding affinity to Magnetospirillum gryphiswaldense cereblon isoform 4 by measuring baseline corrected normalized fluorescence by MST based assay
READOUT_TYPE: pIC50
Interpret pIC50 as the negative base-10 log of the concentration measured in mol/L.

## Task Endpoint output: pIC50 of O=C1CCC(=O)N1 [SUCCINIMIDE] . Value?
## Result 5.45
